Consider the following molecules and their measured TGI readings.
# Tested on: SK-OV-3 ovarian
# assay-name: NCI tumour cell line growth inhibition, 48 h

Examples from the recorded data:
molecule: Cc1cc(Nc2nc(-c3ccc(F)cc3)nc3ccccc23)n[nH]1
TGI: 41.8 µM
--
molecule: C[C@]12CCC3c4ccc(O)cc4CC[C@H]3C1CC(=O)NC2=O (some centres not stated)
TGI: > 10 µM
--
molecule: Cc1nn(-c2ccccc2)c2nc3c(c(C)nn3-c3ccccc3)c(-c3ccc(C(F)(F)F)cc3)c12
TGI: > 100 µM

Qu. Given the molecule "COc1ccc2cc(C(=O)CCC(=O)O)ccc2c1" , what is its reported TGI?
Ans. > 100 µM

Qu. # get_value(readout='TGI', item= "C=CCN1CN(C2CCCCC2)CSC1=S" )
Ans. > 44.1 µM

Qu. Which measured TGI value corresponds to "NC1CCCCC1N.O=C([O-])c1cc(S(=O)(=O)Nc2cc(S(=O)(=O)[O-])cc3cc(S(=O)(=O)[O-])cc(O)c23)ccc1[O-].[Pt+4]" ?
Ans. > 100 µM

Qu. Item "COC(=O)c1cc2/c(=N/O)c3ccccc3sc2o1" has what recorded TGI?
Ans. > 100 µM

Qu. Please look up its TGI: "Oc1c(I)cc(I)cc1CNCCN(Cc1ccccn1)Cc1ccccn1"
Ans. 2.58 µM

Qu. Return reported TGI; argument: "CCCCCCN1C(=O)CC(=O)N(CCCCCC)S1(=O)=O"
Ans. 51.5 µM

Qu. GET /values?readout=TGI&item= "CCC(=O)c1c(C(F)(F)F)n([O-])c2cc(N3CCNCC3)c(F)cc2[n+]1=O"
Ans. 10.4 µM

Qu. Recorded TGI for CC(NC(=O)OC(C)(C)C)C(=O)NC(Cc1ccccc1)C(=O)NCC(=O)ON=C1CCCC1 (configuration not stated) , please?
Ans. > 100 µM

Qu. Give the measured TGI of CC1CC(NN)=Nc2ccccc2N1 (configuration not stated) .
Ans. > 100 µM

Qu. What does the data say about its TGI? Entry: "O=C(NC/C(Cl)=C/Cl)Nc1c2ccccc2nc2ccccc12"
Ans. > 100 µM

Qu. Entry "Cc1nc(-c2nc(C)c(C(=O)/C=C/c3ccc([N+](=O)[O-])cc3)s2)sc1C(=O)/C=C/c1ccc([N+](=O)[O-])cc1" has what TGI?
Ans. > 100 µM

Qu. So what's the measured TGI for this one? COc1ccc(C(CC(C)=O)c2c(O)c3ccccc3oc2=O)cc1OC (configuration not stated)
Ans. > 100 µM

Qu. If you can, please state the reported TGI value of "OC/C=C/[C@H](OCc1ccccc1)[C@H](/C=C/CO)OCc1ccccc1" .
Ans. > 100 µM

Qu. Dear colleague, I am looking for the recorded TGI of the following molecule: "COc1ccc(C(=O)O)c(Br)c1OCc1ccccc1"
Ans. > 100 µM

###

# Tested on: HOP-92 NSCLC
# assay-name: NCI tumour cell line growth inhibition, 48 h
measured-property: GI50

compound: Clc1ccc(Nc2nnc(CNc3ccccc3)c3ccccc23)cc1
measured-property: GI50
assay-value: 777 nM

compound: CCN1C(C)(C)CC(Oc2ccc(C(=O)Nc3ccc(NC(=O)Nc4cc(C(C)(C)C)on4)cc3)nc2)CC1(C)C
measured-property: GI50
assay-value: 2380 nM

compound: COc1cc(-c2cc(/C=C3\C(=O)Nc4cc(Cl)ccc43)[nH]n2)cc(OC)c1OC
measured-property: GI50
assay-value: 1770 nM

compound: Clc1nc(Cl)c2ncn(C/C=C\COc3cccc(OC/C=C\Cn4cnc5c(Cl)nc(Cl)nc54)c3)c2n1
measured-property: GI50
assay-value: > 100000 nM

compound: O=C(OCc1nc2nc(Cl)nc(N3CCOCC3)c2[nH]1)n1ccnc1
measured-property: GI50
assay-value: 1170 nM

Qu. Request body: readout GI50, system HOP-92 NSCLC, query "O=C(NCCCN1CCC(N2CCCCC2)CC1)C1=Cc2cc(Br)ccc2OC1" . Return the value.
Ans. 3680 nM

Qu. Entry "CCC(=O)c1c(C(F)(F)F)n([O-])c2cc(N3CCNCC3)c(F)cc2[n+]1=O" , system HOP-92 NSCLC: what GI50 was measured?
Ans. 2690 nM
